assay: physchem; conditions: buffer or solvent
QUANTITY_MEASURED: remaining at 16 h (%)
Just the number in %, nothing appended.

query: // remaining at 16 h lookup, key: CC[C@H](C)[C@@H]1NC(=O)[C@@H]2CCCN2C(=O)[C@H](CO)NC(=O)[C@H](CCSC)NC(=O)[C@H](C)NC(=O)[C@H](CO)NC(=O)[C@@H]2CSSC[C@H](NC(=O)CN)C(=O)N[C@@H](CSSC[C@@H](C(N)=O)NC1=O)C(=O)N[C@@H](CO)C(=O)N[C@@H](Cc1cnc[nH]1)C(=O)N1CCC[C@H]1C(=O)N[C@@H](C(C)C)C(=O)N2
result: 63

Just for reference, paper PMC6722883 is where these values come from.
